Test: Placebo controlled, dose escalation pharmacokinetic study of oral (Z)-Endoxifen capsules (serum endoxifen; incl. accumulation ratios and dose linearity)
Type: in vivo, human
Settings: female, human, serum, oral, 1 mg; Day 6 Hr 120; read-out: Serum concentration, GeoMean
measuredEndpoint: concentration at 120 h (nM)
# output: bare number, implied unit nM

Q) Find the recorded concentration at 120 h belonging to CC/C(=C(\c1ccc(O)cc1)c1ccc(OCCNC)cc1)c1ccccc1 [(Z)-Endoxifen] and report it.
A) 3.53

----------
Assay: Placebo controlled, dose escalation pharmacokinetic study of oral (Z)-Endoxifen capsules (serum endoxifen; incl. accumulation ratios and dose linearity)
Assay type: in vivo, human
Details: female, human, serum, oral, 1 mg; Day 1 hr 1; read-out: Serum concentration, Max
measuredEndpoint: concentration at 1 h (nM)
Number only, in nM; omit the unit.

Q) Consider the molecule CC/C(=C(\c1ccc(O)cc1)c1ccc(OCCNC)cc1)c1ccccc1 [(Z)-Endoxifen] and give its measured concentration at 1 h.
A) 8.03

----------
Assay: Placebo controlled, dose escalation pharmacokinetic study of oral (Z)-Endoxifen capsules (serum endoxifen; incl. accumulation ratios and dose linearity)
Format: in vivo, human
Conditions: female, human, serum, oral, 1 mg, Day 1; 1 mg; N = 5; read-out: Tmax, GeoMean
measuredEndpoint: Tmax (h)
Note: unit h is implicit; provide only the numeric part.

Q) Fill in: Tmax of CC/C(=C(\c1ccc(O)cc1)c1ccc(OCCNC)cc1)c1ccccc1 [(Z)-Endoxifen] is ___
A) 5.11

----------
Experiment: Placebo controlled, dose escalation pharmacokinetic study of oral (Z)-Endoxifen capsules (serum endoxifen; incl. accumulation ratios and dose linearity)
Type: in vivo, human
Details: female, human, serum, po, 4 mg, Day 21; dose 4 mg oral once daily; Mean, N 6; read-out: Tmax
measuredEndpoint: Tmax (h)
Give a bare numeral; the unit h is implied.

Q) Return reported Tmax; argument: CC/C(=C(\c1ccc(O)cc1)c1ccc(OCCNC)cc1)c1ccccc1 [(Z)-Endoxifen]
A) 5.33

----------
Assay: Placebo controlled, dose escalation pharmacokinetic study of oral (Z)-Endoxifen capsules (serum endoxifen; incl. accumulation ratios and dose linearity)
Type: in vivo, human
Conditions: female, human, serum, oral, 2 mg, Day 1; 2 mg; N 6; read-out: AUC24hr, GeoMean
measuredEndpoint: AUC(0-t)

Q) What value of AUC(0-t) has been reported for the following compound? CC/C(=C(\c1ccc(O)cc1)c1ccc(OCCNC)cc1)c1ccccc1 [(Z)-Endoxifen]
A) 301 ng·h/mL

----------
Experiment: Placebo controlled, dose escalation pharmacokinetic study of oral (Z)-Endoxifen capsules (serum endoxifen; incl. accumulation ratios and dose linearity)
Format: in vivo, human
Conditions: female, human, serum, oral, 1 mg, Day 1; 1 mg; N = 5; read-out: AUC24hr, Median
measuredEndpoint: AUC(0-t) (ng·h/mL)
Numeric answer only, unit ng·h/mL assumed.

Q) Name the reported AUC(0-t) value associated with the compound CC/C(=C(\c1ccc(O)cc1)c1ccc(OCCNC)cc1)c1ccccc1 [(Z)-Endoxifen]
A) 171

----------
Test: Placebo controlled, dose escalation pharmacokinetic study of oral (Z)-Endoxifen capsules (serum endoxifen; incl. accumulation ratios and dose linearity)
Assay type: in vivo, human
Conditions: female, human, serum, po, 4 mg, Day 21; dose 4 mg oral once daily; Mean, N 6; read-out: AUC24hr
measuredEndpoint: AUC(0-t) (ng·h/mL)
Report only the number, with the unit ng·h/mL understood.

Q) Would you kindly share the measured AUC(0-t) for CC/C(=C(\c1ccc(O)cc1)c1ccc(OCCNC)cc1)c1ccccc1 [(Z)-Endoxifen] ?
A) 2040
